A set of molecules tested on Neuraminidase (Influenza A virus (A/Puerto Rico/8/1934(H1N1)), UniProt P03468), with measured IC50:
Express the result in nM but write the number alone.

// returns reported IC50 for input `CCCN(C)C(=O)[C@@H]1OC(C(=O)O)=C[C@H](N)[C@H]1NC(C)=O`
3700

Now consider `CCN(CC)C(=O)[C@@H]1OC(C(=O)O)=C[C@H](N)[C@H]1NC(C)=O` and answer again.
40

Also `CCCN(CCC)C(=O)[C@@H]1OC(C(=O)O)=C[C@H](N)[C@H]1NC(C)=O` ?
8

And for `CCCN(C)C(=O)[C@@H]1OC(C(=O)O)=C[C@H](NC(=N)N)[C@H]1NC(C)=O` ?
5.6
